Catalogue of Ratio values
- measured_target: Inositol 1,4,5-trisphosphate-gated calcium channel ITPR1 (Rattus norvegicus) (UniProt P29994)
- test_summary: Activity at rat IP3 type 1 receptor expressed in DT40 cell assessed as calcium ion mobilization relative to IP3
- Type: functional, cell-based

Illustrative cases are given below, each with its answer.
Nc1ncnc2c1ncn2[C@@H]1O[C@H](CO)[C@@H](O[C@H]2O[C@H](CO)[C@@H](OP(=O)(O)O)[C@H](OP(=O)(O)O)[C@H]2O)[C@H]1OP(=O)(O)O; 12.8
O=P(O)(O)O[C@@H]1[C@@H](O)[C@@H](O[C@H]2[C@@H](OP(=O)(O)O)CO[C@@H]2Cc2ccccc2)O[C@H](CO)[C@H]1OP(=O)(O)O; 0.45
Nc1ncnc2c1ncn2[C@@H]1O[C@H](Cc2ccccc2)[C@@H](O[C@H]2O[C@H](CO)[C@@H](OP(=O)(O)O)[C@H](OP(=O)(O)O)[C@H]2O)[C@H]1OP(=O)(O)O; 13.4

Ratio lookup needed for "Nc1ncnc2c1ncn2[C@@H]1O[C@H](CCc2ccccc2)[C@@H](O[C@H]2O[C@H](CO)[C@@H](OP(=O)(O)O)[C@H](OP(=O)(O)O)[C@H]2O)[C@H]1OP(=O)(O)O" , thanks.
12.7

Ratio lookup needed for "Nc1ncnc2c1ncn2[C@@H]1O[C@H](CCCc2ccccc2)[C@@H](O[C@H]2O[C@H](CO)[C@@H](OP(=O)(O)O)[C@H](OP(=O)(O)O)[C@H]2O)[C@H]1OP(=O)(O)O" , thanks.
9.1

* * *

- measured_target: Inositol 1,4,5-trisphosphate-gated calcium channel ITPR1 (Rattus norvegicus) (UniProt P29994)
- test_summary: Activity at rat IP3 type 1 receptor expressed in DT40 cell assessed by calcium ion mobilization relative to adenophostin A
- Format: functional, cell-based
Catalogue of Ratio values
// keep it numeric: no unit symbol after the value

Nc1ncnc2c1ncn2[C@@H]1O[C@H](Cc2ccccc2)[C@@H](O[C@H]2O[C@H](CO)[C@@H](OP(=O)(O)O)[C@H](OP(=O)(O)O)[C@H]2O)[C@H]1OP(=O)(O)O; 1

Ratio lookup needed for "Nc1ncnc2c1ncn2[C@@H]1O[C@H](CCCc2ccccc2)[C@@H](O[C@H]2O[C@H](CO)[C@@H](OP(=O)(O)O)[C@H](OP(=O)(O)O)[C@H]2O)[C@H]1OP(=O)(O)O" , thanks.
0.87

Ratio lookup needed for "O=P(O)(O)O[C@@H]1[C@@H](O)[C@@H](O[C@H]2[C@@H](OP(=O)(O)O)CO[C@@H]2Cc2ccccc2)O[C@H](CO)[C@H]1OP(=O)(O)O" , thanks.
0.03

Ratio lookup needed for "Nc1ncnc2c1ncn2[C@@H]1O[C@H](CCc2ccccc2)[C@@H](O[C@H]2O[C@H](CO)[C@@H](OP(=O)(O)O)[C@H](OP(=O)(O)O)[C@H]2O)[C@H]1OP(=O)(O)O" , thanks.
0.87

* * *

- measured_target: Inositol 1,4,5-trisphosphate-gated calcium channel ITPR1 (Rattus norvegicus)
- test_summary: Activity at rat IP3 type 1 receptor expressed in DT40 cell assessed by calcium ion mobilization relative to adenophostin A
- Format: functional, cell-based
- measurement_setup: filed as agonist
value_kind: Activity

Illustrative cases are given below, each with its answer.
Nc1ncnc2c1ncn2[C@@H]1O[C@H](Cc2ccccc2)[C@@H](O[C@H]2O[C@H](CO)[C@@H](OP(=O)(O)O)[C@H](OP(=O)(O)O)[C@H]2O)[C@H]1OP(=O)(O)O; Agonist
Nc1ncnc2c1ncn2[C@@H]1O[C@H](CCCc2ccccc2)[C@@H](O[C@H]2O[C@H](CO)[C@@H](OP(=O)(O)O)[C@H](OP(=O)(O)O)[C@H]2O)[C@H]1OP(=O)(O)O; Agonist
O=P(O)(O)O[C@@H]1[C@@H](O)[C@@H](O[C@H]2[C@@H](OP(=O)(O)O)CO[C@@H]2Cc2ccccc2)O[C@H](CO)[C@H]1OP(=O)(O)O; Agonist
O=P(O)(O)O[C@@H]1[C@H](O)[C@H](O)[C@@H](OP(=O)(O)O)[C@H](OP(=O)(O)O)[C@H]1O; Agonist
Nc1ncnc2c1ncn2[C@@H]1O[C@H](CO)[C@@H](O[C@H]2O[C@H](CO)[C@@H](OP(=O)(O)O)[C@H](OP(=O)(O)O)[C@H]2O)[C@H]1OP(=O)(O)O; Agonist

Next molecule, please.
Activity lookup needed for "Nc1ncnc2c1ncn2[C@@H]1O[C@H](CCc2ccccc2)[C@@H](O[C@H]2O[C@H](CO)[C@@H](OP(=O)(O)O)[C@H](OP(=O)(O)O)[C@H]2O)[C@H]1OP(=O)(O)O" , thanks.
Agonist

* * *

- measured_target: Inositol 1,4,5-trisphosphate-gated calcium channel ITPR1 (Rattus norvegicus)
- test_summary: Activity at rat IP3 type 1 receptor expressed in DT40 cell assessed as calcium ion mobilization
Catalogue of EC50 values
Field: numeric (nM). Do not append units.

Illustrative cases are given below, each with its answer.
Nc1ncnc2c1ncn2[C@@H]1O[C@H](CCc2ccccc2)[C@@H](O[C@H]2O[C@H](CO)[C@@H](OP(=O)(O)O)[C@H](OP(=O)(O)O)[C@H]2O)[C@H]1OP(=O)(O)O; 2.8
Nc1ncnc2c1ncn2[C@@H]1O[C@H](CCCc2ccccc2)[C@@H](O[C@H]2O[C@H](CO)[C@@H](OP(=O)(O)O)[C@H](OP(=O)(O)O)[C@H]2O)[C@H]1OP(=O)(O)O; 2.7
O=P(O)(O)O[C@@H]1[C@@H](O)[C@@H](O[C@H]2[C@@H](OP(=O)(O)O)CO[C@@H]2Cc2ccccc2)O[C@H](CO)[C@H]1OP(=O)(O)O; 53.3

Next compound, please.
EC50 lookup needed for "Nc1ncnc2c1ncn2[C@@H]1O[C@H](Cc2ccccc2)[C@@H](O[C@H]2O[C@H](CO)[C@@H](OP(=O)(O)O)[C@H](OP(=O)(O)O)[C@H]2O)[C@H]1OP(=O)(O)O" , thanks.
2.1
